test: Phase 1a multiple ascending dose study (oral solution): plasma pharmacokinetics; type: in vivo, human; conditions: human, plasma, oral, 240 mg, Cohort 3, 240 mg; Day 1; Hour 16; read-out: Compound 1 concentration, Conc (SD)
Quantity kind: concentration at 16 h
// unit must come after the numeric part

Task: Reported concentration at 16 h for `CC(C)(C)OC(=O)N1CCN(Cc2ccn(Cc3ccc(Cl)cc3)c(=O)c2O)CC1` : what is it?
Result: 2.25 ng/mL

* * *

assay: Phase 1a multiple ascending dose study (oral solution): plasma pharmacokinetics; assay type: in vivo, human; conditions: human, plasma, oral, 120 mg, Cohort 4, 120 mg once daily; Day 7; Hour 8; read-out: Compound 1 concentration, Conc (SD)
Quantity kind: concentration at 8 h (ng/mL)
Return type: number; implicit unit ng/mL.

Task: Reported concentration at 8 h for `CC(C)(C)OC(=O)N1CCN(Cc2ccn(Cc3ccc(Cl)cc3)c(=O)c2O)CC1` : what is it?
Result: 3.03

Source: patent US20220175766A1
